# credit: patent US7745465B2

# Test system: HSP72
# assay: Heat stress induced HSP72 production in 3T3 cells
# Format: cell-based, mouse
# experimental_parameters: 10^−5 M, treatment 15 min. before 30 min. 43° C. heat stress
measured_attribute: HSP72 level relative to the stress exposed control

• Cl.Cl.N=C(NOCC(O)CN1CCCCC1)c1cnc2ccccc2c1 (centres unmarked) = +++ (>100%)
• O=C(NOCC(O)CN1CCCCC1)Nc1cccc(Cl)c1 (centres unmarked) = +++ (>100%)
• O=C(O)/C=C\C(=O)O.O[C@@H](CON=C(Cl)c1cccnc1)CN1CCCCC1 = +++ (>100%)

====

Give Survival (%) for every item shown.
# Tested on: Male Sprague-Dawley rats
# assay: Protection against cardiac ischaemia: survival after 5 minutes coronary occlusion and reperfusion
# Type: in vivo, rat
# experimental_parameters: i.v. 1 mg/kgbw, 5 min. before the occlusion; non-treated control 10
Please reply with the bare figure in % and do not write the unit itself.

Inquiry: # query: Survival (%) of entry CC(C)(C)NCC(O)CONC(=O)c1cccc(C(F)(F)F)c1 (stereo not shown)
Reply text: 78

Inquiry: // lookup Survival (%) for CCN(CC)C(=NOCC(O)CN1CCCCC1)c1cccnc1.Cl (stereo not shown)
Reply text: 75

Inquiry: Fill in the blank: the reported Survival (%) of Cl.O=[N+]([O-])c1cccc(C(Cl)=NOCC(O)CN2CCCCC2)c1 (stereo not shown) is ____.
Reply text: 50

Inquiry: Give the measured Survival (%) of CC(C)NCC(O)CON=C(Cl)c1cccc(C(F)(F)F)c1.Cl (stereo not shown) .
Reply text: 67

Inquiry: Which Survival (%) is reported for this compound? Cl.OC(CON=C(Cl)c1cccs1)CN1CCCCC1 (stereo not shown)
Reply text: 100

Inquiry: Need Survival (%) of COc1ccc(CC(Cl)=NOCC(O)CN2CCCCC2)cc1OC (stereo not shown) , thanks.
Reply text: 67

Inquiry: Name the reported Survival (%) value associated with the compound N=C(NOCC(CN1CCCCC1)OC(=O)c1ccccc1)c1cccnc1.O=C(O)/C=C\C(=O)O (stereo not shown)
Reply text: 100

Inquiry: Report Survival (%) for CC(C)NCC(O)CON=C(Cl)c1cccnc1.O=C(O)/C=C\C(=O)O (stereo not shown) please.
Reply text: 60

Inquiry: Endpoint output: Survival (%) of c1cncc(C2=NOCC(CN3CCCCC3)N2)c1 (stereo not shown) . Value?
Reply text: 100

Inquiry: Would you mind telling me what Survival (%) value was observed for CC(C)(C)NCC(O)CON=C(Cl)c1cccc(C(F)(F)F)c1.Cl (stereo not shown) ?
Reply text: 100

Inquiry: Requested field: Survival (%). Item: O=C(NOCC(O)CN1CCCCC1)c1cccc2ccccc12 (stereo not shown)
Reply text: 80

Inquiry: I have this compound here, Cl.OC(CON=C(Cl)c1ccco1)CN1CCCCC1 (stereo not shown) , and I need its recorded Survival (%).
Reply text: 80

Inquiry: Give its Survival (%) value. Item: Cl.O=[N+]([O-])c1ccccc1C(Cl)=NOCC(O)CN1CCCCC1 (stereo not shown)
Reply text: 100

Inquiry: Look up Survival (%) for this compound: O=C(O)/C=C\C(=O)O.OC(CON=C(Cl)c1cccnc1)CN1CCCC1 (stereo not shown)
Reply text: 67

Inquiry: Entry CCN(CC)CC(O)CON=C(Cl)c1cccnc1.Cl (stereo not shown) : reported Survival (%) = ?
Reply text: 62

Inquiry: So what's the measured Survival (%) for this one? COC(=NOCC(O)CN1CCCCC1)c1cccnc1.O=C(O)/C=C\C(=O)O (stereo not shown)
Reply text: 57

Inquiry: Look up Survival (%): Cl.O=[N+]([O-])c1cccc(C(Cl)=NOCCCN2CCCCC2)c1
Reply text: 100

Inquiry: So what's the measured Survival (%) for this one? CC(C)(C)NCC(O)CON=C(Cl)c1cccnc1.O=C(O)/C=C\C(=O)O (stereo not shown)
Reply text: 57

Inquiry: Tell me the measured Survival (%) of O=C(NOCC(O)CN1CCCCC1)Nc1cccc([N+](=O)[O-])c1 (stereo not shown) , please.
Reply text: 50

Inquiry: Quick one: Survival (%) of C[n+]1cccc(C(Cl)=NOCC(O)C[N+]2(C)CCCCC2)c1.[I-].[I-] (stereo not shown) ?
Reply text: 67

Inquiry: # input compound: CC(C)(C)NC(=O)NOCC(O)CN1CCCCC1 (stereo not shown) ; wanted: its Survival (%)
Reply text: 57

Inquiry: Returns the measured Survival (%) for the input compound. Input: CC(C)(C)NCC(O)CONC(=N)c1cccc(C(F)(F)F)c1.Cl.Cl (stereo not shown)
Reply text: 100

Inquiry: // lookup Survival (%) for O=C(O)/C=C\C(=O)O.OC(CON=C(Cl)c1cccnc1)CN1CCCCC1 (stereo not shown)
Reply text: 100

Inquiry: What value of Survival (%) has been reported for the following compound? CC(=O)Nc1ccc(C(N)=NOCC(O)CN2CCCCC2)cc1.Cl (stereo not shown)
Reply text: 60

Inquiry: Name the recorded Survival (%) for O=C(O)/C=C\C(=O)O.OC(CON=C(Cl)c1ccncc1)CN1CCCCC1 (stereo not shown) .
Reply text: 100

Inquiry: Consider the compound shown here: O=C(O)/C=C\C(=O)O.O[C@@H](CON=C(Cl)c1cccnc1)CN1CCCCC1 What is its recorded Survival (%)?
Reply text: 67

Inquiry: What does the data say about its Survival (%)? Entry: Cl.OC(CON=C(Cl)c1ccccc1)CN1CCCCC1 (stereo not shown)
Reply text: 100

Inquiry: Report Survival (%) for Cl.OC(CON=C(Cl)c1cccc(C(F)(F)F)c1)CN1CCCCC1 (stereo not shown) please.
Reply text: 60

Inquiry: I would be grateful if you could share the reported Survival (%) for O=C(O)/C=C\C(=O)O.OC(CON=C(Cl)c1cccnc1)CN1CCOCC1 (stereo not shown) .
Reply text: 71

Inquiry: // Survival (%) lookup, key: Cl.Cl.ClC(=NOCCCN1CCCCC1)c1cccnc1
Reply text: 100

Inquiry: Survival (%) lookup needed for CCCCCCCCCCCCCCCC(=O)OC(CONC(=N)c1cccnc1)CN1CCCCC1.Cl (stereo not shown) , thanks.
Reply text: 100
